Entry source: the supplement of paper PMC12350171

System: S. enterica typhimurium WT
Method: growth AUC normalised to DMSO control (median) (fraction of control); higher = less growth inhibition, active = hit call of the paper
Run conditions: 20 µM
Structures can show the parent of a compound that is named as a salt.
Outcome codes: Yes (active), No (inactive)

• C=C[C@H]1CN2CC[C@H]1C[C@H]2[C@H](OC(=O)OCC)c1ccnc2ccc(OC)cc12 [Quinine ethyl carbonate] = No
• CN(C)[C@@H]1C(=O)C(C(N)=O)=C(O)[C@@]2(O)C(=O)C3=C(O)c4c(O)ccc(Cl)c4[C@@](C)(O)[C@H]3C[C@@H]12 [Chlortetracycline hydrochloride] = Yes
• CN1[C@@H]2CC[C@H]1C[C@@H](OC(=O)C(CO)c1ccccc1)C2 (some centres not stated) [Atropine sulfate monohydrate] = No
• CN1C[C@H](C(=O)N[C@]2(C)O[C@@]3(O)[C@@H]4CCCN4C(=O)[C@H](Cc4ccccc4)N3C2=O)C[C@@H]2c3cccc4[nH]cc(c34)C[C@H]21 [Dihydroergotamine tartrate] = No
• CCC1(c2cccc(O)c2)CCCCN(C)C1 (configuration not stated) [Meptazinol hydrochloride] = No
• COc1ccc(C(CN(C)C)C2(O)CCCCC2)cc1 (configuration not stated) = No
• CC(=O)O[C@H]1C[C@@H]2CC[C@@H]3[C@H](CC[C@@]4(C)[C@H]3C[C@H]([N+]3(C)CCCCC3)[C@@H]4OC(C)=O)[C@@]2(C)C[C@@H]1[N+]1(C)CCCCC1 [Pancuronium bromide] = No
• CCCC(C)(COC(N)=O)COC(=O)NC(C)C (configuration not stated) = No
• C=C1CC[C@@]2(O)[C@H]3Cc4ccc(O)c5c4[C@@]2(CCN3CC2CC2)[C@H]1O5 [Nalmefene hydrochloride] = No
• COc1ccc(C(=O)N2CCCC2=O)cc1 = No
• O=c1[nH]c2ccccc2n1C1CCN(CCCC(c2ccc(F)cc2)c2ccc(F)cc2)CC1 [Pimozide] = No
• NC(=O)CN1CCCC1=O = No
• CC(Cc1ccccc1)NCCC(c1ccccc1)c1ccccc1 (configuration not stated) [Prenylamine lactate] = No
• COc1ccc(Cc2nccc3cc(OC)c(OC)cc23)cc1OC [Papaverine hydrochloride] = No
• COC[C@@H](NC(C)=O)C(=O)NCc1ccccc1 [Lacosamide] = No
• O=C(CCCN1CCC(n2c(=O)[nH]c3ccccc32)CC1)c1ccc(F)cc1 = No
• CC(C)=CC1C(C(=O)OCc2cccc(Oc3ccccc3)c2)C1(C)C (configuration not stated) = No

###

System: Haemophilus parainfluenzae
Method: growth AUC normalised to DMSO control (fraction of control); higher = less growth inhibition, active = hit call of the paper
Run conditions: 20 µM
Where a name gives a salt, the structure may show the parent alone.
Outcome codes: active, inactive

• C[C@]12CC[C@@H]3c4ccc(O)cc4CC[C@H]3[C@@H]1CCC2=O [Estrone] = inactive
• CC(=C(CCO)SSCC1CCCO1)N(C=O)Cc1cnc(C)nc1N (stereo in doubt) [Fursultiamine hydrochloride] = inactive
• CCC1(C)CC(=O)NC1=O (centres undefined) [Ethosuximide] = inactive
• C=C(CC)C(=O)c1ccc(OCC(=O)O)c(Cl)c1Cl [Ethacrynic acid] = inactive
• CN(Cc1ccc(C(C)(C)C)cc1)Cc1cccc2ccccc12 [Butenafine hydrochloride] = inactive
• Cc1ccnc(NS(=O)(=O)c2ccc(N)cc2)n1 [Sulfamerazine] = inactive
• O=c1n(CCCN2CCN(c3cccc(Cl)c3)CC2)nc2ccccn12 [Trazodone hydrochloride] = inactive
• Nc1nc2c(ncn2COC(CO)CO)c(=O)[nH]1 [Ganciclovir] = inactive
• CO/N=C(\C(=O)N[C@@H]1C(=O)N2C(C(=O)O)=C(COC(C)=O)CS[C@H]12)c1csc(N)n1 [Cefotaxime sodium salt] = active

###

System: Haemophilus parainfluenzae
Method: growth AUC normalised to DMSO control (fraction of control); higher = less growth inhibition, active = hit call of the paper
Run conditions: 20 µM
Where a name gives a salt, the structure may show the parent alone.
We use 1 as the dividing line for growth AUC normalised to DMSO control: on or above the line is true, below is false.

- Cn1c(=O)c2c(ncn2CC(=O)O)n(C)c1=O: false
- COc1ccc(CC2c3cc(OC)c(OC)cc3CC[N+]2(C)CCC(=O)OCCCCCOC(=O)CC[N+]2(C)CCc3cc(OC)c(OC)cc3C2Cc2ccc(OC)c(OC)c2)cc1OC (configuration not stated) [Atracurium besylate]: true
- COC(=O)Nc1nc2ccc(SC(C)C)cc2[nH]1: true
- O=C(O)CCNC(=O)c1ccc(/N=N/c2ccc(O)c(C(=O)O)c2)cc1 [Balsalazide disodium salt]: true
- C#C[C@]1(O)CC[C@H]2[C@@H]3CCC4=Cc5oncc5C[C@]4(C)[C@H]3CC[C@@]21C: false
- CC1(C)S[C@@H]2[C@H](NC(=O)[C@H](N)c3ccc(O)cc3)C(=O)N2[C@H]1C(=O)O: false
- CC[C@H]1OC(=O)[C@H](C)[C@@H](O[C@H]2C[C@@](C)(OC)[C@@H](O)[C@H](C)O2)[C@H](C)[C@@H](O[C@@H]2O[C@H](C)C[C@H](N(C)C)[C@H]2O)[C@](C)(O)C[C@@H](C)[C@@H]2N[C@@H](COCCOC)O[C@H]([C@H]2C)[C@]1(C)O: false
- O=C(O)c1cn(C2CC2)c2cc(N3CCNCC3)c(F)cc2c1=O [Ciprofloxacin hydrochloride monohydrate]: false
- CN1CC2c3ccccc3Oc3ccc(Cl)cc3C2C1 (configuration not stated) [Asenapine maleate]: false
- CN(C)CCC(c1ccc(Br)cc1)c1ccccn1 (configuration not stated) [Brompheniramine maleate]: true
- CCCCC(CC)CNC(=N)NC(=N)NCCCCCCNC(=N)NC(=N)NCC(CC)CCCC (configuration not stated) [Alexidine dihydrochloride]: false
- CCOC1O[C@H]([C@@H](COCc2ccccc2)OCc2ccccc2)[C@H](OCc2ccccc2)[C@H]1O (some centres not stated) [Tribenoside]: false
- C#C[C@]1(OC(C)=O)CC[C@H]2[C@@H]3CCC4=CC(=NO)CC[C@@H]4[C@H]3CC[C@@]21CC (mixture of isomers) [Norgestimate]: false
- CN(C)CCOC(c1ccccc1)c1ccccc1.Cn1c(=O)c2[nH]c(Cl)nc2n(C)c1=O [Dimenhydrinate]: false
- CN(CCOc1ccc(CC2SC(=O)NC2=O)cc1)c1ccccn1 (configuration not stated) [Rosiglitazone hydrochloride]: true
- Cc1c(Cl)cccc1Nc1ccccc1C(=O)O: false
- CCOC(=O)C1=C(C)NC(C)=C(C(=O)OC)C1c1cccc(Cl)c1Cl (configuration not stated): false
- CC(=O)OC[C@H]1O[C@@H]([S-])[C@H](OC(C)=O)[C@@H](OC(C)=O)[C@@H]1OC(C)=O.CCP(CC)CC.[Au+]: false

###

Test system: P. vulgatus WT
Method: growth AUC normalised to DMSO control (median) (fraction of control); higher = less growth inhibition, active = hit call of the paper
Run conditions: 20 µM
Counter-ions that a name gives are not always drawn.
Parameter: growth AUC normalised to DMSO control

- COc1ccc(CN2CCNCC2)c(OC)c1OC [Trimetazidine dihydrochloride]: 1.01
- CCCCCC[C@H]1C(=O)O[C@H](C)[C@H](NC(=O)c2cccc(NC=O)c2O)C(=O)O[C@@H](C)[C@@H]1OC(=O)CC(C)C [Antimycin A]: 1.05
- CCN[C@@H](C)Cc1cccc(C(F)(F)F)c1 [Dexfenfluramine hydrochloride]: 1.02
- CCN(C(C)=O)c1cccc(-c2ccnc3c(C#N)cnn23)c1: 1

###

Tested on: Haemophilus parainfluenzae
Method: growth AUC normalised to DMSO control (fraction of control); higher = less growth inhibition, active = hit call of the paper
Run conditions: 20 µM
Counter-ions that a name gives are not always drawn.
Attribute: growth AUC normalised to DMSO control
Parameter: growth AUC normalised to DMSO control

- CC(=O)N(CC(O)CO)c1c(I)c(C(=O)NCC(O)CO)c(I)c(C(=O)NCC(O)CO)c1I (stereo not drawn) [Iohexol]: 0.981
- CN1CCc2cccc3c2[C@H]1Cc1ccc(O)c(O)c1-3 [R(-) Apomorphine hydrochloride hemihydrate]: 1.05
- NS(=O)(=O)c1cc2c(cc1Cl)N=C(CSCc1ccccc1)NS2(=O)=O [Benzthiazide]: 0.987
- CCOC(=O)C1=C(C)NC(C)=C(C(=O)OC)C1c1cccc([N+](=O)[O-])c1 (stereo not drawn): 1.03
- OC(CCN1CCCCC1)(c1ccccc1)C1CC2C=CC1C2 (stereo not drawn) [Biperiden hydrochloride]: 0.95
- COc1ccc([C@@H]2Sc3ccccc3N(CCN(C)C)C(=O)[C@@H]2OC(C)=O)cc1 [Diltiazem hydrochloride]: 0.988
- N[C@@H](Cc1cc(I)c(Oc2ccc(O)c(I)c2)c(I)c1)C(=O)O: 0.943
- CC(NC(C)(C)C)C(=O)c1cccc(Cl)c1 (stereo not drawn) [Bupropion hydrochloride]: 1.01
